# System: NCI-H196 complex spheroid growth, percent test/control
# protocol: Anticancer human tumor NCI-H196 cell line growth inhibition [AhR];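 also: seven days of drug exposure starting three days after plating; 100% = DMSO vehicle control wells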
# applied conditions: second compound 0.1 µM; first compound 10 µM; hits give low values
quantity measured: viability, T/C (%)
// units = %; emit number, no label

Study these solved cases before continuing.
[[record]]
compound = "CC1(C)CCC(CN2CCN(c3ccc(C(=O)NS(=O)(=O)c4ccc(NCC5CCOCC5)c([N+](=O)[O-])c4)c(Oc4cnc5[nH]ccc5c4)c3)CC2)=C(c2ccc(Cl)cc2)C1 + Cc1cncc(-c2nc(NCCc3c[nH]c4ccccc34)c3ncn(C(C)C)c3n2)c1"
result_unit = "%"
observed = 107

[[record]]
compound = "NS(=O)(=O)OCC1CC(n2ccc3c(NC4CCc5ccccc54)ncnc32)CC1O (stereo not drawn) + Cc1cncc(-c2nc(NCCc3c[nH]c4ccccc34)c3ncn(C(C)C)c3n2)c1"
result_unit = "%"
observed = 68.2


Fill in the blank: the reported viability, T/C of COc1cc(Nc2ncc3c(n2)-c2ccc(Cl)cc2C(c2c(F)cccc2OC)=NC3)ccc1C(=O)O + Cc1ccccc1N=Nc1ccc(NC(=O)c2ccnn2C)c(C)c1 is ____.
116

* * *

Readings of viability, T/C for the listed compounds
# System: NCI-H196 complex spheroid growth, percent test/control
# protocol: Anticancer human tumor NCI-H196 cell line growth inhibition [AhR];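 also: seven days of drug exposure starting three days after plating; 100% = DMSO vehicle control wells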
# applied conditions: second compound 1 µM; first compound 0.1 µM; hits give low values
// units = %; emit number, no label

Study these solved cases before continuing.
[[record]]
compound = "NS(=O)(=O)OCC1CC(n2ccc3c(NC4CCc5ccccc54)ncnc32)CC1O (stereo not drawn) + Cc1cncc(-c2nc(NCCc3c[nH]c4ccccc34)c3ncn(C(C)C)c3n2)c1"
target_system = "NCI-H196 complex spheroid growth, percent test/control"
observed = 66.7

[[record]]
compound = "CC1COCCN1c1cc(C2(S(C)(=N)=O)CC2)nc(-c2ccnc3[nH]ccc23)n1 (stereo not drawn) + CC(CO)NC(=O)c1cc(-c2ccc(Cl)cc2)nn(-c2cnn(C)c2)c1=O"
target_system = "NCI-H196 complex spheroid growth, percent test/control"
observed = 114


Next:
Fill in the blank: the reported viability, T/C of Nc1ccn(C2OC(CO)C(O)C2(F)F)c(=O)n1 (stereo not drawn) + CC(CO)NC(=O)c1cc(-c2ccc(Cl)cc2)nn(-c2cnn(C)c2)c1=O is ____.
86.6

* * *

# Test system: NCI-H196 complex spheroid growth, percent test/control
# protocol: Anticancer human tumor NCI-H196 cell line growth inhibition [AhR];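 also: seven days of drug exposure starting three days after plating; 100% = DMSO vehicle control wells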
# applied conditions: second compound 0.1 µM; first compound 0.03 µM; hits give low values
quantity measured: viability, T/C (%)
// units = %; emit number, no label

Study these solved cases before continuing.
[[record]]
molecule = "CC(C)CC(NC(=O)C(Cc1ccccc1)NC(=O)c1cnccn1)B(O)O (stereo unspecified) + CC(CO)NC(=O)c1cc(-c2ccc(Cl)cc2)nn(-c2cnn(C)c2)c1=O"
observed = 3.54

[[record]]
molecule = "Nc1ncn(C2CC(O)C(CO)S2)c(=O)n1 (stereo unspecified) + Cc1cncc(-c2nc(NCCc3c[nH]c4ccccc34)c3ncn(C(C)C)c3n2)c1"
observed = 111

[[record]]
molecule = "CCN(c1cc(-c2ccc(CN3CCOCC3)cc2)cc(C(=O)NCc2c(C)cc(C)[nH]c2=O)c1C)C1CCOCC1 + CC(CO)NC(=O)c1cc(-c2ccc(Cl)cc2)nn(-c2cnn(C)c2)c1=O"
observed = 111


Lab note: need viability, T/C with NCI-H196 complex spheroid growth, percent test/control for entry O=C(C=Cn1cnc(-c2cc(C(F)(F)F)cc(C(F)(F)F)c2)n1)NNc1cnccn1 + Cc1cncc(-c2nc(NCCc3c[nH]c4ccccc34)c3ncn(C(C)C)c3n2)c1 , please look it up.
65

Lab note: need viability, T/C with NCI-H196 complex spheroid growth, percent test/control for entry CC(C)CC(NC(=O)C(Cc1ccccc1)NC(=O)c1cnccn1)B(O)O (stereo unspecified) + Cc1cncc(-c2nc(NCCc3c[nH]c4ccccc34)c3ncn(C(C)C)c3n2)c1 , please look it up.
1.78

Lab note: need viability, T/C with NCI-H196 complex spheroid growth, percent test/control for entry CC(C)CC(NC(=O)C(Cc1ccccc1)NC(=O)c1cnccn1)B(O)O (stereo unspecified) + Cc1ccccc1N=Nc1ccc(NC(=O)c2ccnn2C)c(C)c1 , please look it up.
6.41
